- TESTED TARGET: T1, monkey GPC3-His protein (monkey)
- T1 construct: Bought recombinant protein; also called monkey GPC3 protein
- PROTOCOL DESCRIPTION: ELISA, monkey GPC3-His coated;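 further: Plate-coated antigen at 1 µg/mL, antibody binding 2 h at 37 °C, detected with HRP-labeled secondary antibody and TMB, absorbance at 450 nm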
MEASURED QUANTITY: OD450 at 1 nM (OD450)
Field: numeric (OD450). Do not append units.

See these solved cases before continuing.
BINDER | UNIT NAME | RESULT NUMBER
F2.23.8 (antibody, human IgG1, kappa, V domains shown, Human-murine chimeric antibody) VH: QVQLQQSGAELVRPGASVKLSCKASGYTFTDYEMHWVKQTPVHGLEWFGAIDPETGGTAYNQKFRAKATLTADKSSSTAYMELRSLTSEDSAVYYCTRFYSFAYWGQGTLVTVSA VL: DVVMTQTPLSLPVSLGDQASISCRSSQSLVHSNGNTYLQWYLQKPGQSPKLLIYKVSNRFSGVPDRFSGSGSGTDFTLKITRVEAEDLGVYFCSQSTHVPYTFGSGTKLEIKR | OD450 | 2.22
F4.21.16 (antibody, human IgG1, kappa, V domains shown, Human-murine chimeric antibody) VH: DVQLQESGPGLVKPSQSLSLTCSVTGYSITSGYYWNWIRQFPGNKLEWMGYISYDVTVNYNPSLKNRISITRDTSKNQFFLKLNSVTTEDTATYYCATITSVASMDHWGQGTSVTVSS VL: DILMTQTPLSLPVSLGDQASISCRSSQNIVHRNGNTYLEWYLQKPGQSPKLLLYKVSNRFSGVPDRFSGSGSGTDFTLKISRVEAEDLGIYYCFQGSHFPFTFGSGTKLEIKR | OD450 | 1.41

The recorded OD450 at 1 nM for F2.152.3 (antibody, human IgG1, kappa, V domains shown, Human-murine chimeric antibody) VH: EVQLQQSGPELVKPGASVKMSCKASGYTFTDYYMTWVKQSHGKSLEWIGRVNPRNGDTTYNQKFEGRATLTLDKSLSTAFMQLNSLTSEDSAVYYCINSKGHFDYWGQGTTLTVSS VL: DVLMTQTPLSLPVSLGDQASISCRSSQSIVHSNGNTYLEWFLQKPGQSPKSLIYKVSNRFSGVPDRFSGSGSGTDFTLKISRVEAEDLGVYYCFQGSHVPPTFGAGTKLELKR is 2.52
